Experiment: MTS cytotoxicity assay, overnight, THP-1
Type: cell-based, human
Conditions: human, THP-1 cells, overnight, concentration range 100–0.2 µM
Protocol: Adherent liver hepatocellular carcinoma cell line HepG2 (ATCC, HB-8065) and human acute monocytic leukemia cell line in suspension THP-1 (ATCC, TIB-202) were purchased from American Type Culture Collection (ATCC, Manassas, VA, USA). […] A cytotoxicity assay was performed using MTS CellTiter 96 AQueous One Solution Cell Proliferation Assay (Promega, G3580, Madison, WI, USA). […] The absorbance was recorded at 490 nm using a Wallac Victor2 microplate reader (PerkinElmer, Waltham, MA, USA). […]
QUANTITY NAME: IC50 (µM)
Report as a plain number; the unit µM is understood.

Below: 3 compounds and their reported IC50.
COc1cc(/C=C/C(=O)c2cnc(C(C)(C)C)cn2)ccc1O [Compound 4f]	36
CC(C)c1cnc(C(=O)/C=C/c2ccc(O)cc2)cn1 [Compound 3c]	78
O=C(/C=C/c1cccc(O)c1)c1ccccc1 [Compound 2]	51

Value lookup for IC50; key = CCCc1cnc(C(=O)/C=C/c2ccc(O)cc2)cn1 [Compound 3b]
94
